Tested on: HL-60
procedure text: Antiproliferative activity against human HL60 cells assessed as reduction in cell viability incubated for 48 hrs by MTS assay
Type: functional, cell-based
assay context: HL-60, 48 h
Provide the reported IC50 of each item.
Response body: numeric value in nM, unit text excluded.

Task item: What value of IC50 has been reported for the following compound? COc1ccc(C(=O)C[n+]2ccn([C@H]3CC[C@@]4(C)C(=CC[C@H]5[C@@H]6C[C@@H]7O[C@]8(CC[C@@H](C)CO8)[C@@H](C)[C@@H]7[C@@]6(C)CC[C@@H]54)C3)c2)cc1
Reply: 940

Task item: // query IC50 value for entry CC(C)CCC[C@@H](C)[C@H]1CC[C@H]2[C@@H]3C[C@H](n4cc[n+](CC(=O)c5ccccc5)c4)[C@]45C[C@H]4CC[C@]5(C)[C@H]3CC[C@]12C
Reply: 1530

Task item: I am curious: what IC50 value has been reported for CC(=O)O[C@H]1CC[C@@]2(C)C(=CC[C@H]3[C@@H]4CC[C@H](n5cc[n+](CC(=O)c6ccc7ccccc7c6)c5)[C@@]4(C)CC[C@@H]32)C1 ?
Reply: 1260

Task item: Sample C[C@@H]1CC[C@@]2(OC1)O[C@H]1C[C@H]3[C@@H]4C[C@H](n5cc[n+](CC(=O)c6cccc(Br)c6)c5)[C@]56C[C@H]5CC[C@]6(C)[C@H]4CC[C@]3(C)[C@H]1[C@@H]2C — what was its IC50?
Reply: 1280
